target_entity: Short transient receptor potential channel 3 (Homo sapiens)
test_protocol: Antagonist activity at human TRPC3 expressed in HEK293 cells assessed as inhibition of carbachol-induced activity at 10 uM measured after 48 hrs by Whole-cell patch clamp electrophysiology relative to control
Assay type: cell-based
reported_conditions: filed as antagonist
readout_type: inhibition

QUERY: Hello, I am looking for reported inhibition with Short transient receptor potential channel 3 (Homo sapiens) for `CCNC(=O)c1cn(-c2ccc(-n3ccc(Cl)c(Cl)c3=O)cc2)nc1C(F)(F)F` . Could you help?
RESULT: > 97%

QUERY: Next record, please: `O=C(c1cnn(-c2ccc(-n3ccc(Cl)c(Cl)c3=O)cc2)c1C(F)(F)F)N1CCCC1`
RESULT: > 80%

QUERY: What do we get for `CCNC(=O)c1cnn(-c2ccc(-n3ccc(Cl)c(Cl)c3=O)cc2)c1` ?
RESULT: > 97%

QUERY: Now the same for `CCNC(=O)c1cnn(-c2ccc(-n3ccc(O)c(Cl)c3=O)cc2)c1C(F)(F)F`
RESULT: > 90%

QUERY: Can you check `CCOC(=O)c1cnn(-c2ccc(NC(=O)C(Cl)=C(Cl)Cl)cc2)c1C(F)(F)F` next?
RESULT: > 80%

QUERY: Could you do the same for `CCNC(=O)c1cnn(-c2ccc(-n3ccc(Cl)c(Cl)c3=O)cc2)c1C(F)(F)F` , please?
RESULT: > 80%

QUERY: Let us now turn to `CCNC(=O)c1ncn(-c2ccc(-n3ccc(Cl)c(Cl)c3=O)cc2)c1C(F)(F)F`
RESULT: > 90%

QUERY: Repeat for the following compound: `CCC(=O)Nc1cnn(-c2ccc(-n3ccc(Cl)c(Cl)c3=O)cc2)c1C(F)(F)F`
RESULT: > 80%

QUERY: Please answer likewise for `CCNC(=O)c1cnn(-c2ccc(-n3ccc(C(F)(F)F)c(Cl)c3=O)cc2)c1C(F)(F)F`
RESULT: > 80%
